# relative viability per entry
System: KHOS-NP
Experiment: relative viability vs DMSO control (72 h) (fraction); higher = more viable cells
Settings: 1.111 µM
property: relative viability

molecule: O=C(Nc1ccc(OC(F)(F)Cl)cc1)c1cnc(N2CC[C@@H](O)C2)c(-c2cc[nH]n2)c1
testedTarget: KHOS-NP
testValue: 0.998
//
molecule: O=C1NC(=O)[C@@H](c2cn3c4c(cccc24)CCC3)[C@@H]1c1c[nH]c2ccccc12 [Tivantinib]
testedTarget: KHOS-NP
testValue: 0.541
//
molecule: CO[C@H]1C[C@@H]2CC[C@@H](C)[C@@](O)(O2)C(=O)C(=O)N2CCCC[C@H]2C(=O)O[C@H]([C@H](C)C[C@@H]2CC[C@@H](OCCO)[C@H](OC)C2)CC(=O)[C@H](C)/C=C(\C)[C@@H](O)[C@@H](OC)C(=O)[C@H](C)C[C@H](C)/C=C/C=C/C=C/1C
testedTarget: KHOS-NP
testValue: 1.03
//
molecule: O=c1sn(-c2cccc3ccccc23)c(=O)n1Cc1ccccc1
testedTarget: KHOS-NP
testValue: 1.08
//
molecule: CC(C)Oc1ccc(-c2nn([C@@H](C)c3oc4ccc(F)cc4c(=O)c3-c3cccc(F)c3)c3ncnc(N)c23)cc1F
testedTarget: KHOS-NP
testValue: 1.1
//
molecule: Cc1ccc(Nc2nccc(N(C)c3ccc4c(C)n(C)nc4c3)n2)cc1S(N)(=O)=O
testedTarget: KHOS-NP
testValue: 0.99
